# Tested on: OVCAR-3
# measurement.protocol: NCI tumour cell line growth inhibition, 48 h
Calls of active or inactive are those of the source. Rule as the data show it: active = GI50 up to about 1.1 µM and inactive = higher. Residues, ends and D or L forms follow the SMILES beside them.
Labels: YES for active, NO for inactive

• CC1(C)COC2C(N(Cc3ccccc3)Cc3ccccc3)C(=O)N21 (centres undefined) = NO
• CCCNCC(O)CNc1ccc(NCC(O)CNCCC)c2c1C(=O)c1ccccc1C2=O (centres undefined) = NO
• CC(=O)O[C@@H]1C2C(=O)OC(=O)C2C2CCC[C@]23O[C@H]13 (some centres undefined) = NO
• CCOC(=O)CN1C(=O)NC(C)(c2ccccc2)C1=O (centres undefined) = NO
• CCN(CC)CCCC(C)Nc1cc(-c2ccccc2)nc2cc(OC)ccc12 (centres undefined) = NO
• CCCCCCCCCCCCCCCC(=O)NCC(COP(=O)([O-])OCC[N+](C)(C)C)OCC (centres undefined) = NO
• Clc1c(Cl)c2c(Cl)c(Cl)c1C[PH](c1ccccc1)(c1ccccc1)CC[PH](c1ccccc1)(c1ccccc1)Cc1c(Cl)c(Cl)c(c(Cl)c1Cl)C[PH](c1ccccc1)(c1ccccc1)CC[PH](c1ccccc1)(c1ccccc1)C2 = NO
• CCOP(=O)(/C=C\n1ccc(N)nc1=O)OCC = NO
• CCCCCCCCCCCCCCCCCCOCC(COCCOCC[N+]1(CCCCCC(=O)[O-])CCCC1)Oc1ncccn1 (centres undefined) = NO
• COC1OC(=O)[C@H]2O[N+]([O-])=C(C)[C@@H]12 (some centres undefined) = NO
• O=C(O/N=C1/CCCC/C1=C\c1ccccc1)c1ccccc1 = NO
• CC(=O)NC(CO)C(=O)NC(Cc1ccc(O)cc1)C(=O)NCC(N)=O (stereo not drawn) (Ac-Ser-Tyr-Gly-NH2; configuration not given here) = NO
• COC(=O)[C@@H]1[C@@H]2NC(=S)N[C@@]1(C)Oc1ccccc12 = NO
• CCCNC(=O)C(C)(Cl)C(=O)c1ccccc1O (centres undefined) = NO
• O=CC(O)C(O)C(O)C1CNC(=S)O1 (centres undefined) = NO
• O=c1[nH]nc(-c2ccccc2)n1/N=C/c1ccc([N+](=O)[O-])o1 = YES
• CN1C(=O)CN=C(c2ccccc2F)c2cc(N=C=S)ccc21 = NO
• COc1ccc2c(-c3ccc(O)cc3)c(Oc3ccccc3)c(=O)oc2c1 = NO
• C[C@]1(O)O[C@@H]2OCC[C@@H]2C2=C1C(=O)c1ccccc1C2=O = NO

----------
Measured GI50 values are reported for all entries that follow.
# System: U-251
# measurement.protocol: NCI tumour cell line growth inhibition, 48 h
Activity calls are given as the source filed them. Cut-off read from the data, not from the text of the source: active = GI50 up to about 1.1 µM and inactive = higher.
endpoint.label: GI50

- Cc1cc(O)c(C(c2ccncc2)c2c(O)cc(C)[nH]c2=O)c(=O)[nH]1: > 100 µM (inactive)
- CN(C)c1n/c(=N/c2ccc(/N=c3\nc(N(C)C)ss3)cc2)ss1: 29.9 µM (inactive)
- C=C1C(=O)O[C@H]2C1C[C@@H](O)[C@@]1(C)OC1CC[C@@]1(C)O[C@H]21 (some centres undefined): > 100 µM (inactive)
- Cc1cn(S(=O)(=O)c2ccccc2)c2c(OCc3ccccc3)cc([N+](=O)[O-])cc12: 31 µM (inactive)
- C=CCNC(=S)N/N=C1\C(=O)Nc2ccc([N+](=O)[O-])cc21: 64.3 µM (inactive)
- Nc1ncnc2c1ncn2[C@@H]1C[C@H](NO)[C@@H](O)[C@H]1O: > 100 µM (inactive)
- CCCNCC(O)CNc1ccc(NCC(O)CNCCC)c2c1C(=O)c1ccccc1C2=O (centres undefined): 2.57 µM (inactive)
- CC(=O)OCC1OC(n2c(-c3ccc(Cl)cc3)cc(-c3ccccc3)c(C#N)c2=S)C(OC(C)=O)C(OC(C)=O)C1OC(C)=O (centres undefined): 8.67 µM (inactive)
- Cc1c(-c2cc(-c3ccccc3)n[nH]c2=O)c2ccccc2n1C: > 100 µM (inactive)

Data credit: ChEMBL document CHEMBL1201862
